These measurements were taken from patent US10584117B2.

Answer each item with its documented IC50.
- TARGET SYSTEM: human recombinant HDAC6 (Homo sapiens)
- Sequence (Q9UBN7 whole entry): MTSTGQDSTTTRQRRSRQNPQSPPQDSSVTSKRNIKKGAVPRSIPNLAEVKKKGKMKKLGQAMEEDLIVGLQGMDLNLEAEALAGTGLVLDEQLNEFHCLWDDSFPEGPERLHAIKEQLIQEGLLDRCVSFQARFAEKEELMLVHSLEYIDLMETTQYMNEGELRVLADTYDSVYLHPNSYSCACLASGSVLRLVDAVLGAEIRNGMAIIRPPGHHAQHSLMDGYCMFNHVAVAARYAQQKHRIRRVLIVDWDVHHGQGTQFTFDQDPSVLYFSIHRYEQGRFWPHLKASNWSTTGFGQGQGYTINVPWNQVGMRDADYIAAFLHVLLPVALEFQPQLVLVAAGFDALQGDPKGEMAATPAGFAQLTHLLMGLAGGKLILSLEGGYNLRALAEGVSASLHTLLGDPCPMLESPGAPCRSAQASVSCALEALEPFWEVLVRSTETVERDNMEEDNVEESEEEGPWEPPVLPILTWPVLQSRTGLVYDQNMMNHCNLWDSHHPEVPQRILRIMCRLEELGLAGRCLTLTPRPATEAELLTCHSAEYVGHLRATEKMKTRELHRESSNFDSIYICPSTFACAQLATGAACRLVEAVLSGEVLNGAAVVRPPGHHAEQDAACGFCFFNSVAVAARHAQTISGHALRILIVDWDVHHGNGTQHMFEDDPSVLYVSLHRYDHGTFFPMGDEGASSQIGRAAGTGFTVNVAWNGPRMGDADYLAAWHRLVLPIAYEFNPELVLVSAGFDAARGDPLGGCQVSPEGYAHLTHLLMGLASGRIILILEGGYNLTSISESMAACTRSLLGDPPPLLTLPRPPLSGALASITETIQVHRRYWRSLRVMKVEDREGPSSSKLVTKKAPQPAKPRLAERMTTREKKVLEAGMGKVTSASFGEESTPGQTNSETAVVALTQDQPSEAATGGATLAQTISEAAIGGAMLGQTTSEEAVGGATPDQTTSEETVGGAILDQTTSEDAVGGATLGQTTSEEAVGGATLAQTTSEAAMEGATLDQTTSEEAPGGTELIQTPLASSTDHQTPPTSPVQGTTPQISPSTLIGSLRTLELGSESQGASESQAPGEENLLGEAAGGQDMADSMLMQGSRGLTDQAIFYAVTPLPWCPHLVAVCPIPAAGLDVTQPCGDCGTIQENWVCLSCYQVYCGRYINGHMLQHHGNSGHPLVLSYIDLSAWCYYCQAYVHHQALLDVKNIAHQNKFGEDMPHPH
- TEST: HDAC enzyme activity inhibition assay (HDAC6, fluorimetric kit)
- DETAILS: same protocol as the HDAC1 test
The answer is to be given in µM; state only the numeric part.

Noted for "CCN1CC(C(=O)N(Cc2ccc(-c3nnc(C(F)(F)F)o3)cc2)c2ccccc2)C1" : its IC50 reads 0.129

Entry under test: "CCN1CC(C(=O)N(Cc2ccc(-c3nnc(C(F)F)o3)cc2F)c2ccccc2)C1" . Its IC50 was 0.026

Memo: "CCC(=O)N1CCC(C(=O)N(Cc2ccc(-c3nnc(C(F)(F)F)o3)cc2)c2ccccc2)CC1" , reported IC50: 0.207

Summary for this compound, "CC(C)C(=O)N1CC(C(=O)N(Cc2ccc(-c3nnc(C(F)F)o3)cc2F)c2cccc(F)c2)C1" : IC50 is 0.043

Just so you know, measured IC50 for "O=C(CN1CCC[C@@H]1CO)N(Cc1ccc(-c2nnc(C(F)F)o2)cc1F)c1ccc(F)c(Cl)c1" came out at 0.07

Short answer for "O=C(C1CCCCC1)N(Cc1ccc(-c2nnc(C(F)(F)F)o2)cc1)c1ccccc1" : IC50 was 1.3

Noted for "CC(=O)N(Cc1ccc(-c2nnc(C(F)F)o2)cc1F)c1cccc(F)c1" : its IC50 reads 0.049

response.value for "CS(=O)(=O)N1CC(C(=O)N(Cc2ccc(-c3nnc(C(F)(F)F)o3)cc2)c2ccccc2)C1" (field: IC50) = 0.165

IC50 in this record for "O=C(C1CCN(C2COC2)CC1)N(Cc1ccc(-c2nnc(C(F)(F)F)o2)cc1F)c1ccccc1" : 0.279

Lab book: IC50 of "CS(=O)(=O)N1CCC(C(=O)N(Cc2ccc(-c3nnc(C(F)(F)F)o3)cc2F)c2ccccc2)CC1" noted as 0.123

Short answer for "CC(=O)N(Cc1ccc(-c2nnc(C(F)F)o2)cc1F)c1ccccc1" : IC50 was 0.053

IC50 for "CN1CCC(C(=O)N(Cc2ccc(-c3nnc(C(F)F)o3)cc2F)c2ccccc2)CC1" is 0.088

In plain terms, "O=C(C1CCN(Cc2ccccc2)CC1)N(Cc1ccc(-c2nnc(C(F)(F)F)o2)cc1)c1ccccc1" has a documented IC50 of 0.516

Kindly note the recorded IC50 for "CCN1CCC(C(=O)N(Cc2ccc(-c3nnc(C(F)F)o3)cn2)c2cccc(F)c2)CC1" , which is 0.03

The compound listed as "CCC(=O)N1CCC(C(=O)N(Cc2ccc(-c3nnc(C(F)(F)F)o3)cc2F)c2ccccc2)CC1" shows IC50 equal to 0.109

Query "CCCN1CC(C(=O)N(Cc2ccc(-c3nnc(C(F)F)o3)cc2F)c2cccc(F)c2)C1" yields IC50 of 0.049

Lab note: measured IC50 of "CS(=O)(=O)N1CCC(C(=O)N(Cc2ccc(-c3nnc(C(F)F)o3)cc2F)c2ccccc2)CC1" was 0.06

Data point: "O=C(c1ccccc1)N(Cc1ccc(-c2nnc(C(F)(F)F)o2)cc1)c1ccccc1" ; IC50 = 0.509

Note to self: IC50 recorded for "CCN1CCC(C(=O)N(Cc2ccc(-c3nnc(C(F)(F)F)o3)cc2F)c2ccccc2)CC1" was 0.114
